Values compiled from patent US20240092922A1.

# tested.target: T1, Histidine-tagged human 4-1BB protein (h4-1BB-His) (human, UniProt Q07011 24-186)
# T1 construct: not shown: histidine tag
# experiment.summary: SPR (Biacore T200), antibody on Protein A chip, h4-1BB-His injected;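 further: dissociation phase followed for 300 s, Kd derived as koff divided by kon from the kinetic fit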
measured.property: koff (s⁻¹)
Form entry: value (s⁻¹) — number only.

Solved cases below.
binder | koff (s⁻¹)
5F9-H1K4-IgG4 (antibody, V domains shown, humanized) VH: QVQLQESGPGLVKPSETLSLTCTVSGFSLTTYDISWVRQPPGKGLEWIGVIWTGGGTNYNSSFMSRVTISKDTSKNQVSLKLSSVTAADTAVYYCERVDYWGQGTTVTVSS VL: DVVMTQSPLSLPVTLGDPASISCRSSQSLVHSNGNTYLHWYLQRPGQSPKLLIYKVSNRFSGVPDRFSGSGSGTAFTFKISRVEAEDVGVYYCSQNTHVPWTFGGGTKLEIK | 0.00244
6A5-H3K4-IgG2 (antibody, V domains shown, humanized) VH: QVQLVQSGAEVKKPGSSVKLSCKASGYTFSSYWINWVKQAPGQGLEWIGNIYPSDSYTNYNQKFKDKATLTVDKSTSTAYMELSSLRSEDTAVYYCTRTWEFYYDSVFDYWGQGTTLTVSS VL: DIQMTQSPSSLSASLGERVTITCKASQDINSYLSWFQQKPGKAPKTLIYRANRLVDGVPSRFSGSGSGQDYTLTISSLQPEDIATYYCLQYDELPPTFGGGTKLEIK | 0.000747

Identify measured koff corresponding to 1C4-H1K2-IgG4 (antibody, V domains shown, humanized) VH: QVQMVQSGAEVKKPGASVKLSCKASGFTFSSSYINWLRQAPGQRLEWMGWIFAGTGGTYYNQKFTGRVTITRDTSASTAYMELSSLRSEDTAIYYCARHSPRATLFDFWGQGTTLTVSS VL: EIVLTQSPATLSLSPGERATLSCRASSSVNHMHWYQQKPGQAPRALIYATSNLASGIPARFSGSGSGTSFTLTISSLEPEDFATYYCQQWSSNPYTFGGGTKLEIK
0.000605

Using known records, supply koff for 1C4-H3K2-IgG4 (antibody, V domains shown, humanized) VH: QVQMVQSGAEVKKPGASVKLSCKASGFTFSSSYINWLRQAPGQSLEWIGWIFAGTGGTYYNQKFTGRAQITRDTSASTAYMELSSLRSEDTAIYYCARHSPRATLFDFWGQGTTLTVSS VL: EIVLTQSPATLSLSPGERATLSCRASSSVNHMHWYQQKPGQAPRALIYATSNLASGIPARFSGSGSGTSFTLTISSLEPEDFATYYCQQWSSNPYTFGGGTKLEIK
0.000453
